What Avg. IC50 (nM), human hemolysis assay was measured for each of the following?
Target: human C5 protein (human, UniProt P01031 19-673; P01031 678-1676)
Assay: cell-based or functional assay
Positions of bridges follow the written chain, without caps; N, C: chain ends. Non-standard residues stand in square brackets, D forms with d. Primed or numbered codes have the meaning given here. mXylyl(3) = bridging moiety between the two residues given in brackets; mXylyl″ = bridging moiety between the two marked residues; Trp(1-Me) = Cn1cc(C[C@H](N)C(=O)O)c2ccccc21; Phg = N[C@H](C(=O)O)c1ccccc1; Tle = CC(C)(C)[C@H](N)C(=O)O; Nva = CCC[C@H](N)C(=O)O

Value of Avg. IC50 (nM), human hemolysis assay reported for the binder Ac-[Nva]CYNN[Tle]ECEYP[Phg][Tle]-NH2 (linker 2-8 via mXylyl(3)) [R3129] is > 100000 nM

Value of Avg. IC50 (nM), human hemolysis assay reported for the binder Ac-YENY[dW]EYP[Phg][Nva]-NH2 (SMILES CCC[C@H](NC(=O)[C@@H](NC(=O)[C@@H]1CCCN1C(=O)[C@H](Cc1ccc(O)cc1)NC(=O)[C@H](CCC(=O)O)NC(=O)[C@@H](Cc1c[nH]c2ccccc12)NC(=O)[C@H](Cc1ccc(O)cc1)NC(=O)[C@H](CC(N)=O)NC(=O)[C@H](CCC(=O)O)NC(=O)[C@H](Cc1ccc(O)cc1)NC(C)=O)c1ccccc1)C(N)=O) [R3119] is > 100000 nM

Value of Avg. IC50 (nM), human hemolysis assay reported for the binder Ac-[Nva]CYEN[Tle]YCEYP[Phg][Nva]-NH2 (linker 2-8 via mXylyl″) [R3017] is > 100000 nM

Value of Avg. IC50 (nM), human hemolysis assay reported for the binder Ac-YEN[Tle]YWEYP[Phg][Nva]-NH2 (SMILES CCC[C@H](NC(=O)[C@@H](NC(=O)[C@@H]1CCCN1C(=O)[C@H](Cc1ccc(O)cc1)NC(=O)[C@H](CCC(=O)O)NC(=O)[C@H](Cc1c[nH]c2ccccc12)NC(=O)[C@H](Cc1ccc(O)cc1)NC(=O)[C@@H](NC(=O)[C@H](CC(N)=O)NC(=O)[C@H](CCC(=O)O)NC(=O)[C@H](Cc1ccc(O)cc1)NC(C)=O)C(C)(C)C)c1ccccc1)C(N)=O) [R3041] is 71.3 nM

Value of Avg. IC50 (nM), human hemolysis assay reported for the binder Ac-YEN[Tle]Y[Trp(1-Me)]EYP[Phg][Nva]-NH2 (SMILES CCC[C@H](NC(=O)[C@@H](NC(=O)[C@@H]1CCCN1C(=O)[C@H](Cc1ccc(O)cc1)NC(=O)[C@H](CCC(=O)O)NC(=O)[C@H](Cc1cn(C)c2ccccc12)NC(=O)[C@H](Cc1ccc(O)cc1)NC(=O)[C@@H](NC(=O)[C@H](CC(N)=O)NC(=O)[C@H](CCC(=O)O)NC(=O)[C@H](Cc1ccc(O)cc1)NC(C)=O)C(C)(C)C)c1ccccc1)C(N)=O) [R3110] is 2940 nM

Value of Avg. IC50 (nM), human hemolysis assay reported for the binder Ac-[Nva]CYNN[Tle]ECEYP[Phg][Tle]-NH2 (cysteine pairing not given here) [R3128] is > 100000 nM
